Each item that follows carries a reported melting point.

Example entries begin here.
COc1ccc(C(O)c2nc(-c3ccc4[nH]c(=O)c(O)c(O)c4c3)cs2)cc1OC (stereo not drawn)    188 to 189 °C
CCOc1ccc(-c2nc(C=Cc3ccccc3)cs2)cc1OCC    94 to 95 °C

Now consider a different compound.
[in] What does the record list as melting point for `CCOc1ccc(-c2nc(-c3cc4c(c(C(=O)O)c3)OC(C)(C)C4)cs2)cc1OCC` ?
[out] 106 to 107 °C
